Values from PubChem BioAssay (NCI)

Tested on: HS 578T breast
ASSAY INFO: NCI tumour cell line growth inhibition, 48 h
Each entry below lists one item and its recorded TGI value.
Unit µM implied. Number only.

{"COMPOUND": "CNC1=CC(=O)C2=C(C1=O)C1C3=C(C(=O)C(Br)=C(OC)C3=O)C2c2ccccc21 (stereo not given)", "ASSAY SYSTEM": "HS 578T breast", "UNITS": "µM", "RESULT VALUE": 22.1}

Here is another compound to look at.
Please report the recorded TGI for `CCCC(CCC)Oc1ccc(CCCC2=C(O)c3ccccc3C(=O)C2=O)cc1` .
37.4

* * *

System: K-562 leukemia
One label from this list, please: yes (1) = active, no (0) = inactive

Here are 10 compounds together with their reported answers.
{"COMPOUND": "CSC(=NC#N)S/C=C/C(=O)c1cccc2ccccc12", "LABEL CLASS": "no (0)"}
{"COMPOUND": "CC(C)c1ccc(/C=N/N=C(N)N)cc1", "LABEL CLASS": "no (0)"}
{"COMPOUND": "NC(=S)N/N=C/c1ccc(OC(=O)COc2ccccc2)cn1", "LABEL CLASS": "no (0)"}
{"COMPOUND": "CC1=C/C(O)CC(=O)Cc2nc(co2)C(=O)N2CCC=C2C(=O)OC(C(C)C)C(C)/C=C\\C(=O)NC/C=C\\1 (centres undefined)", "LABEL CLASS": "no (0)"}
{"COMPOUND": "N#CSCC1CC(O)(c2ccccc2)CC(c2ccc(Cl)cc2)O1 (centres undefined)", "LABEL CLASS": "no (0)"}
{"COMPOUND": "COc1ccc(C2CC(c3cccc(OC)c3)=NN2C(=O)c2cc(OC)c(OC)c(OC)c2)cc1 (centres undefined)", "LABEL CLASS": "no (0)"}
{"COMPOUND": "COc1ccc(C2SCC(=O)N2NC(=O)C(O)c2ccccc2)cc1 (centres undefined)", "LABEL CLASS": "no (0)"}
{"COMPOUND": "CCOc1ccc(NC(=O)c2cc3ccccc3cc2O)cc1", "LABEL CLASS": "no (0)"}
{"COMPOUND": "O=C1Nc2ccc(CN3CCOC3=O)cc2/C1=C/c1cc(CN2CCOCC2)c[nH]1", "LABEL CLASS": "no (0)"}
{"COMPOUND": "Cc1ccc(N(/C=C/C(=O)C(F)(F)F)CC(=O)c2ccc(Cl)c(Cl)c2)cc1", "LABEL CLASS": "no (0)"}

// param item: `COc1cc(O)c2c(=O)c(OC)c(-c3ccc(OC)c(OC)c3)oc2c1.[Zn+2]` ; yields the recorded call
no (0)

What do we get for CC(=O)OC1CC2(O)C(CCC3(C)C(c4ccc(=O)oc4)CCC32O)C2(C)CCC(OC3OC(CO)C(O)C(O)C3O)C=C12 (centres undefined) ?
yes (1)

* * *

Each entry below lists one item and its recorded TGI value.
System: CCRF-CEM leukemia
ASSAY INFO: NCI tumour cell line growth inhibition, 48 h

Sample records with TGI:
{"COMPOUND": "CCOC(=O)C(C)c1nc2cc(C(F)(F)F)ccc2[nH]c1=O (stereo not given)", "TGI": "> 100 µM"}
{"COMPOUND": "O=c1[nH]cc(COCC(O)CO)c(=O)[nH]1 (stereo not given)", "TGI": "> 100 µM"}
{"COMPOUND": "C[n+]1cc2cc3c(cc2c2ccccc21)OCO3", "TGI": "> 100 µM"}
{"COMPOUND": "CC1(C)N([O-])[N+](=O)C1(Br)c1ccccc1 (stereo not given)", "TGI": "> 100 µM"}
{"COMPOUND": "CCOc1ccc2c(c1)C(=O)c1c-2n(CCCN)c(=O)c2cc([N+](=O)[O-])ccc12", "TGI": "0.0208 µM"}
{"COMPOUND": "Cc1nc2ccccc2c(=O)n1/N=C(\\N=Nc1ccccc1Cl)c1ccccc1", "TGI": "55.2 µM"}
{"COMPOUND": "Cc1c(-c2ccccc2)c(C#N)c2nnn(C)c(=O)n12", "TGI": "> 100 µM"}
{"COMPOUND": "O=C(/C=C/c1ccc(O)cc1)c1cc(-c2cc(CCC(=O)c3ccc(O)cc3O)ccc2O)c(O)cc1O", "TGI": "43.6 µM"}

Please report the recorded TGI for CNC(C)[C@H]1CCC2C3CCC4C[C@@H](N(C)C(=O)c5ccccc5)CC[C@]4(C)C3CC[C@@]21C (stereo not given in full) .
3.4 µM

What do we get for Nc1ncc(N)c(NCC2(CO)CC(CCc3ccccc3)C2)n1 (stereo not given) ?
4.34 µM

What do we get for `O=C(NCCNC(=O)c1ccc(F)cc1)Nc1ccc(-n2cc(-c3ccncc3)c(-c3ccc(Cl)c(O)c3)n2)cc1` ?
> 100 µM

What do we get for `O=S1(=O)c2ccccc2-c2nccc3ccnc1c23` ?
> 100 µM

What do we get for `CC(C)C[C@H]1C(=O)N2CCC[C@H]2[C@]2(O)O[C@](NC(=O)[C@@H]3C=C4c5cccc6[nH]c(Br)c(c56)C[C@H]4N(C)C3)(C(C)C)C(=O)N12` ?
> 100 µM

What do we get for `COc1ccc(OC)c([N+](=O)[O-])c1-c1nc2sc(C)c(C)n2c1/C=N/N=C(N)N` ?
> 100 µM

What do we get for CC1=NN(C(=O)CC(=O)Nc2ccc(Cl)cc2)C(=O)C1N=Nc1ccc(S(=O)(=O)c2ccc(N=NC3C(=O)N(C(=O)CC(=O)Nc4ccc(Cl)cc4)N=C3C)cc2)cc1 (stereo not given) ?
> 100 µM

What do we get for `CC(C)(C)Cc1cc(O)ccc1O` ?
93.9 µM

What do we get for CC1(C)CC2C(/C1=N/O)C1(C)CCCC2(C)C1O (stereo not given) ?
> 100 µM

What do we get for COc1cc(/C=C2\CC(C)C/C(=C\c3ccc(O)c(OC)c3)C2=O)ccc1O (stereo not given) ?
> 45 µM

What do we get for `C=C(C)CCN(C(=O)OC(C)(C)C)c1cc(C(C)C)co1` ?
> 100 µM

What do we get for C=CCN(N=O)C(=O)N(CCCCC(NC(C)=O)C(=O)NCc1ccccc1)Cc1ccccc1 (stereo not given) ?
80.4 µM

What do we get for `O=C(O)c1cc2cc(O)ccc2[nH]1` ?
> 100 µM

What do we get for `C[N+]1(C)C/C(=C\c2ccc(O)cc2)C(=O)/C(=C/c2ccc(O)cc2)C1` ?
> 100 µM

What do we get for `Nc1ccc(S(=O)(=O)NCCS(=O)(=O)O)cc1` ?
> 100 µM
